Origin of the recorded values: ChEMBL document CHEMBL4138216

- System: MDA-MB-436
- test-details: Antiproliferative activity against human MDA-MB-436 cells assessed as decrease in cell viability after 24 hrs by MTT assay
- Assay type: functional, cell-based
- experimental-context: MDA-MB-436, 24 h
I'd appreciate it if you could supply pIC50 values for the items below.
Lab note: report pIC50 as minus log10 of the concentration in molar units, number only.

Request: I am curious: what pIC50 value has been reported for O=C(O)CC(NC(=O)c1ccc(C(F)(F)F)cc1)c1ccc(Cl)cc1Cl (stereo unspecified) ?
Result: 4.36

Request: Can you check O=C(O)CC(NC(=O)c1ccc(F)cc1)c1ccc(Cl)cc1Cl (stereo unspecified) next?
Result: 4.25

Request: Can you check O=C(O)CC(NS(=O)(=O)c1ccc(C(F)(F)F)cc1)c1ccccc1 (stereo unspecified) next?
Result: 4.26

Request: Can you check O=C(O)CC(NS(=O)(=O)c1cc(F)cc(F)c1)c1ccccc1 (stereo unspecified) next?
Result: 4.16

Request: Can you check N#Cc1ccc(S(=O)(=O)NC(CC(=O)O)c2ccc(Cl)cc2Cl)cc1 (stereo unspecified) next?
Result: 4.70
